System: biotinyl-Trp-oxazolone
Assay: self-aminoacylation, catalytic enhancement (BWO) (fold over background); higher = more active; k-Seq, kA / k0A0; sequences stand for … in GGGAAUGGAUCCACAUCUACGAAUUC…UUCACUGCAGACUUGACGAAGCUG
Fewer inactive variants are shown than the library holds.
self-aminoacylation class ranges: low bin: < 1; mid bin: ≥ 1 and < 4; high bin: ≥ 4

Query: Which class does AUUCACCAAGGUCAUCGGCUG [Fam2.2 aminoacylation ribozyme variant] fall in?
Result: mid bin

Query: Which class does AAGUUUGUCAAUAGUCGCAAG [Fam3.1 aminoacylation ribozyme variant] fall in?
Result: mid bin

Query: Which class does AUUACCCUGGCCAUCGAGUGG [Fam2.1 aminoacylation ribozyme variant] fall in?
Result: mid bin

Query: Which class does GUUACCCUGGUCAUUGAGUGA [Fam2.1 aminoacylation ribozyme variant] fall in?
Result: high bin

Query: Which class does CUACUUCACACAAUCGGCCUG [Fam1A.1 aminoacylation ribozyme variant] fall in?
Result: mid bin

Query: Which class does AAGUUUGCUAAUAGCCACAAG [Fam3.1 aminoacylation ribozyme variant] fall in?
Result: low bin

Query: Which class does CUAGUUCAAACAAUCGGUCAG [Fam1A.1 aminoacylation ribozyme variant] fall in?
Result: mid bin

Query: Which class does AUUCACCUAGGCCACCGGGUG [Fam2.2 aminoacylation ribozyme variant] fall in?
Result: high bin

Query: Which class does CUACUUCAAACAAUCGAGCUG [Fam1A.1 aminoacylation ribozyme variant] fall in?
Result: low bin

Query: Which class does AUUACCCUGGUCAUCGAGUGG [Fam2.1 aminoacylation ribozyme variant] fall in?
Result: high bin

Query: Which class does AUUGUCCUGGUCAUCGAGUGA [Fam2.1 aminoacylation ribozyme variant] fall in?
Result: high bin

Query: Which class does AUUCCCCUGGUCAUCGAGGGA [Fam2.1 aminoacylation ribozyme variant] fall in?
Result: mid bin

Query: Which class does CUACUUCAAACAAUCGGAUUG [Fam1A.1 aminoacylation ribozyme variant] fall in?
Result: mid bin

Query: Which class does AGCUUUGCUAAUAGUCGCAAG [Fam3.1 aminoacylation ribozyme variant] fall in?
Result: mid bin

Query: Which class does CUACUUCAAAGAUUCGGUCUG [Fam1A.1 aminoacylation ribozyme variant] fall in?
Result: low bin

Query: Which class does UUUCACCUAGGUCAUCGUGUG [Fam2.2 aminoacylation ribozyme variant] fall in?
Result: mid bin

Query: Which class does CAACACUUCAAGCAACCGGUC [Fam1B.1 aminoacylation ribozyme variant] fall in?
Result: low bin

Query: Which class does CCAGACUUCAACCAAUCGGUC [Fam1B.1 aminoacylation ribozyme variant] fall in?
Result: high bin

====

Test system: biotinyl-Met-oxazolone
Assay: self-aminoacylation, catalytic enhancement (BMO) (fold over background); higher = more active; k-Seq, kA / k0A0; sequences stand for … in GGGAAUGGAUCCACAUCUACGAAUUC…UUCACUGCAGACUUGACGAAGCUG
Variants at the floor of the assay were thinned out.
For each entry below, report its self-aminoacylation value.
Form rule: numeric answer, no unit written next to it.

Query: Look up self-aminoacylation with biotinyl-Met-oxazolone for this sequence: ACUCACCUCGGUCAUCGGGUG [Fam2.2 aminoacylation ribozyme variant]
Result: 4.36

Query: Look up self-aminoacylation with biotinyl-Met-oxazolone for this sequence: AUUACCCUGGUGAGCGAGUGA [Fam2.1 aminoacylation ribozyme variant]
Result: 3.94

Query: Look up self-aminoacylation with biotinyl-Met-oxazolone for this sequence: CUAAUUCAAACAAACGGUCUG [Fam1A.1 aminoacylation ribozyme variant]
Result: 0.616

Query: Look up self-aminoacylation with biotinyl-Met-oxazolone for this sequence: AUUAGCCUGGUCCUCGAGUGA [Fam2.1 aminoacylation ribozyme variant]
Result: 4.69

Query: Look up self-aminoacylation with biotinyl-Met-oxazolone for this sequence: CCACACUUCAAGCAUUGGGUC [Fam1B.1 aminoacylation ribozyme variant]
Result: 1.03

Query: Look up self-aminoacylation with biotinyl-Met-oxazolone for this sequence: AAGUUUGCUAAUACUUGCAAG [Fam3.1 aminoacylation ribozyme variant]
Result: 0.582

Query: Look up self-aminoacylation with biotinyl-Met-oxazolone for this sequence: AUUACCGUGGUCAACGAGUGA [Fam2.1 aminoacylation ribozyme variant]
Result: 6.41

Query: Look up self-aminoacylation with biotinyl-Met-oxazolone for this sequence: CCACACUCCAAGCAAUCGGUG [Fam1B.1 aminoacylation ribozyme variant]
Result: 7.47

Query: Look up self-aminoacylation with biotinyl-Met-oxazolone for this sequence: CUACCUAAAACAAUCGGUCUG [Fam1A.1 aminoacylation ribozyme variant]
Result: 0.761

Query: Look up self-aminoacylation with biotinyl-Met-oxazolone for this sequence: AAGUUUGCUAAUAGUAGCGAG [Fam3.1 aminoacylation ribozyme variant]
Result: 0.995

Query: Look up self-aminoacylation with biotinyl-Met-oxazolone for this sequence: AAGCGUGCUAAUAGUCGCAAG [Fam3.1 aminoacylation ribozyme variant]
Result: 2.62

Query: Look up self-aminoacylation with biotinyl-Met-oxazolone for this sequence: ACACUUCAAACAAUCGGUCUG [Fam1A.1 aminoacylation ribozyme variant]
Result: 1.57

Query: Look up self-aminoacylation with biotinyl-Met-oxazolone for this sequence: AUUACCCUGGUCGUAGAGUGA [Fam2.1 aminoacylation ribozyme variant]
Result: 1.28

Query: Look up self-aminoacylation with biotinyl-Met-oxazolone for this sequence: CUACUUCAAACAAUCGGACUA [Fam1A.1 aminoacylation ribozyme variant]
Result: 0.579

Query: Look up self-aminoacylation with biotinyl-Met-oxazolone for this sequence: CUAUUUCAAACAAUCGGUUUG [Fam1A.1 aminoacylation ribozyme variant]
Result: 0.903

Query: Look up self-aminoacylation with biotinyl-Met-oxazolone for this sequence: AGACUUCAAACAAUCGGUCUG [Fam1A.1 aminoacylation ribozyme variant]
Result: 2.4

Query: Look up self-aminoacylation with biotinyl-Met-oxazolone for this sequence: AAGUCUGCUAAUAGUAGCAAG [Fam3.1 aminoacylation ribozyme variant]
Result: 1.24

Query: Look up self-aminoacylation with biotinyl-Met-oxazolone for this sequence: CUUACCCUGGACAUCGAGUGA [Fam2.1 aminoacylation ribozyme variant]
Result: 5.08

====

For each entry below, report its self-aminoacylation value.
Tested on: biotinyl-Met-oxazolone
Experiment: self-aminoacylation, catalytic enhancement (BMO) (fold over background); higher = more active; k-Seq, kA / k0A0; sequences stand for … in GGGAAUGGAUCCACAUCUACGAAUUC…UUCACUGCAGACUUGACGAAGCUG
Variants at the floor of the assay were thinned out.
Form rule: numeric answer, no unit written next to it.

Query: Endpoint output: self-aminoacylation of AUUACCCUUGUCAUCUAGUGA [Fam2.1 aminoacylation ribozyme variant] . Value?
Result: 7.09

Query: Endpoint output: self-aminoacylation of CUACGUCAAACAAACGGUCUG [Fam1A.1 aminoacylation ribozyme variant] . Value?
Result: 1.08

Query: Endpoint output: self-aminoacylation of CAGUUUGCUAAUAGUUGCAAG [Fam3.1 aminoacylation ribozyme variant] . Value?
Result: 1.44

Query: Endpoint output: self-aminoacylation of AUUACCCUGGUCAUCGAGUUC [Fam2.1 aminoacylation ribozyme variant] . Value?
Result: 1.88

Query: Endpoint output: self-aminoacylation of CUACAUUAAACAAUCGGUCUG [Fam1A.1 aminoacylation ribozyme variant] . Value?
Result: 1.14

Query: Endpoint output: self-aminoacylation of AAGUUUGCUGAUAGUCGCAAU [Fam3.1 aminoacylation ribozyme variant] . Value?
Result: 1.22

Query: Endpoint output: self-aminoacylation of CUUCACCUAGGUCAUCGGAUG [Fam2.2 aminoacylation ribozyme variant] . Value?
Result: 0.842

Query: Endpoint output: self-aminoacylation of AUUACCCUAGUCAACGAGUGA [Fam2.1 aminoacylation ribozyme variant] . Value?
Result: 5.11

Query: Endpoint output: self-aminoacylation of AUUCCCCUAGGUCAUCAGGUG [Fam2.2 aminoacylation ribozyme variant] . Value?
Result: 8.46

====

Tested on: biotinyl-Ile-oxazolone
Assay: self-aminoacylation, catalytic enhancement (BIO) (fold over background); higher = more active; k-Seq, kA / k0A0; sequences stand for … in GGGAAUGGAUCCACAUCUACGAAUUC…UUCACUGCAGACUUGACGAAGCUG
Variants at the floor of the assay were thinned out.
For each entry below, report its self-aminoacylation value.
Form rule: numeric answer, no unit written next to it.

Query: Endpoint output: self-aminoacylation of CUACUGCAAACAAUCGGUCUU [Fam1A.1 aminoacylation ribozyme variant] . Value?
Result: 0.974

Query: Endpoint output: self-aminoacylation of CUACUUCAAAAAUUCGGUCUG [Fam1A.1 aminoacylation ribozyme variant] . Value?
Result: 1.44

Query: Endpoint output: self-aminoacylation of AUUACCCUGGUGAGCGAGUGA [Fam2.1 aminoacylation ribozyme variant] . Value?
Result: 2.4

Query: Endpoint output: self-aminoacylation of CUAAUUCAAACAAUCGAUCUG [Fam1A.1 aminoacylation ribozyme variant] . Value?
Result: 0.604

Query: Endpoint output: self-aminoacylation of CUACCUCAAACAAUCGCUCUG [Fam1A.1 aminoacylation ribozyme variant] . Value?
Result: 0.818

Query: Endpoint output: self-aminoacylation of AUUACCCUGGUCAUCUUGUGA [Fam2.1 aminoacylation ribozyme variant] . Value?
Result: 2.27

Query: Endpoint output: self-aminoacylation of AAGUUUGCUAAGAGUCGUAAG [Fam3.1 aminoacylation ribozyme variant] . Value?
Result: 0.61

Query: Endpoint output: self-aminoacylation of AUUACCCUGGUCAUCGCGUGC [Fam2.1 aminoacylation ribozyme variant] . Value?
Result: 2.81
